TGT: corticotropin releasing factor 1 receptor
METHOD DESCRIPTION: cell-based or functional assay
Ends that are not written are not given here.
Entries and their measured CRF1R EC50 follow.
I only need the number, in µM, no unit after it.

May I ask what CRF1R EC50 has been recorded for DNPSLSIDLPYYLLRTLLELARTQSQRERAEQNAIIFASV-NH2 [SEQ ID NO 263] ?
0.802

Next:
Which measured CRF1R EC50 value corresponds to ZGPPISIDVPLQLLRKVIEIEKQEKEKQQAANNARLLDTI (C-terminal amide) [SEQ ID NO 380] ?
1

# CRF1R EC50 lookup, item ZGPPISIDLPTYLLRKMIEIEKQEKEKQQAANNALLLATI (C-terminal amide) [SEQ ID NO 233]
1
